Here, molecules appear alongside IC50 reported for Neuromedin-K receptor (Homo sapiens) in the literature.
Field format: number, assumed nM, no unit text.

Some molecules with recorded IC50:
CC1(C)CCCc2ccccc2C1OC(=O)N[C@](C)(Cc1ccccc1)C(=O)NCCCCCCCCC(N)=O (stereo partly drawn)	61
CC(C)(C)OC(=O)N[C@@H](Cc1ccccc1)C(=O)NC(C)(Cc1ccccc1)C(=O)NC1CCCC1 (mixture of isomers)	556
CCOc1cc([C@H]2NC(=O)NC(c3cccnc3)=C2c2ccccc2)cc([N+](=O)[O-])c1O	700

Continue with the next molecule.
Query :: Give the reported IC50 for `CCOc1cc([C@@H]2NC(=O)NC(c3ccccc3)=C2c2ccsc2)cc([N+](=O)[O-])c1O` (system: Neuromedin-K receptor (Homo sapiens)).
Result :: 22000
